experimental.system: GSNOR (GSNO Reductase) (Homo sapiens, UniProt P11766)
Sequence (P11766 whole entry): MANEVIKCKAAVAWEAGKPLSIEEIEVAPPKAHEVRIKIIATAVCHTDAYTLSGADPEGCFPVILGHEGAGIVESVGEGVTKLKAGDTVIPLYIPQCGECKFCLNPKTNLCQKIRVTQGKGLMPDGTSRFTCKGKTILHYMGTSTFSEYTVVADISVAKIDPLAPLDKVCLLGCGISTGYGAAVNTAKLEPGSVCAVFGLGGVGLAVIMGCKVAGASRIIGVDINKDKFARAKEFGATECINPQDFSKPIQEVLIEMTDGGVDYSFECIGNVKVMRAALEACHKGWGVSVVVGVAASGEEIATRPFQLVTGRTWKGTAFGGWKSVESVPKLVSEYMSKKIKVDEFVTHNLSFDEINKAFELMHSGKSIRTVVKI
pIC50: −log10 of the molar value.
measurement.name: pIC50

Quick one: give measured pIC50 for COc1ccc(-c2ccc(CCC(=O)O)n2-c2ccc(O)cc2Cl)cc1 [Compound 80]
> 6.00

Quick one: give measured pIC50 for COc1cc(Cl)ccc1-c1ccc(CCC(=O)O)n1-c1ccc(C(N)=O)cc1 [Compound 264]
> 6.00

Quick one: give measured pIC50 for COc1ccc(-c2ccc(CCC(=O)O)n2-c2ncc(C(N)=O)s2)cc1 [Compound 238]
> 5.30

Quick one: give measured pIC50 for Cc1nccn1-c1ccc(-c2ccc(CCC(=O)O)n2-c2ccc(O)cc2)cc1 [Compound 249]
> 6.00
